# ASSAYED SYSTEM: HLA-A*0201 (human)
# ASSAY DETAILS: competition with 125I-labelled standard peptide for purified HLA-A*0201, gel filtration
MEASUREMENT KIND: relative binding ratio (IC50 of standard peptide / IC50 of test peptide)

BINDER	EXPERIMENTAL VALUE
RLQRRRETQV (modifications not checked) [HPV18 E6 peptide … (position 149)]	0.0001
SVYGDTLEKL (modifications not checked) [HPV18 E6 peptide … (position 84)]	0.0028
DLRAFQQL (modifications not checked) [HPV18 E7 peptide DLRAFQQL (position 82)]	0.0001
TVLELTEV (modifications not checked) [HPV18 E6 peptide TVLELTEV (position 37)]	0.001
KLTNTGLYNLL (modifications not checked) [HPV18 E6 peptide … (position 92)]	0.0043
